Values were extracted from patent US20190352358A1.

experiment: Pharmacokinetics in Göttingen minipigs after intravenous and subcutaneous injection (Example 12); assay type: in vivo; conditions: Göttingen, plasma, 0.5 umol/kg; sc, 0.5 μmol/kg, minipig; read-out: times post dose for maximum concentration (Tmax), median
Residues, ends and D or L forms follow the SMILES beside them. *: point of attachment. Stearoyl = CCCCCCCCCCCCCCCCCC(=O)*
measure.name: Tmax (h)
Supply the numeric figure in h, leaving out any unit text.

Query block: Need Tmax, item CCCCCCCCCCCCCCCCCC(=O)N[C@@H](Cc1c[nH]cn1)C(=O)N[C@@H](CC(C)C)C(=O)NCC(=O)N[C@@H](CC(C)C)C(=O)N[C@@H](CCC(=O)O)C(=O)N[C@@H](CCC(=O)O)C(=O)N1CCC[C@H]1C(=O)N[C@@H](CCCCN)C(=O)N[C@@H](CCCCN)C(=O)O [SEQ ID NO: 73, C18:0-HLGLEEPKK] (Stearoyl-HLGLEEPKK-OH; C-terminus assumed)
Result block: 4

* * *

Assay: Pharmacokinetics in Göttingen minipigs after intravenous and subcutaneous injection (Example 12)
Assay type: in vivo
Details: Göttingen, plasma, 0.5 umol/kg; sc, 0.5 μmol/kg, minipig; read-out: maximum concentrations (Cmax), mean
Procedure: The peptide was reconstituted in saline (0.9% NaCl). Three Göttingen minipigs (approximately 8-10 months of age) were used per group. Intravenous doses were administered into an ear vein at the dose of 0.5 μmol net peptide/kg. […] Blood samples were centrifuged at 10000×g for 2 minutes at 4° C. and resultant plasma aspirated off into clean fully, labelled tubes. […] The limit of quantification of this method is 0.0015 nmol/mL. All values below this limit of quantification are considered as zero.
Residues, ends and D or L forms follow the SMILES beside them. *: point of attachment. Stearoyl = CCCCCCCCCCCCCCCCCC(=O)*
measure.name: Cmax (nM)
Give the value, in units of nM, as a plain number.

Query block: Bench note: what Cmax did CCCCCCCCCCCCCCCCCC(=O)N[C@@H](Cc1c[nH]cn1)C(=O)N[C@@H](CC(C)C)C(=O)NCC(=O)N[C@@H](CC(C)C)C(=O)N[C@@H](CCC(=O)O)C(=O)N[C@@H](CCC(=O)O)C(=O)N1CCC[C@H]1C(=O)N[C@@H](CCCCN)C(=O)N[C@@H](CCCCN)C(=O)O [SEQ ID NO: 73, C18:0-HLGLEEPKK] (Stearoyl-HLGLEEPKK-OH; C-terminus assumed) show?
Result block: 290

* * *

# Lookup of reported Tmax keyed by entry
experiment: Pharmacokinetics in male Sprague Dawley rats after intravenous and subcutaneous injection (Example 10); type: in vivo; conditions: male, Sprague Dawley, plasma; sc, 1 μmol net peptide/kg, rat
Residues, ends and D or L forms follow the SMILES beside them. *: point of attachment. Stearoyl = CCCCCCCCCCCCCCCCCC(=O)*; Palmitoyl = CCCCCCCCCCCCCCCC(=O)*
The figure you give is taken to be in h; do not add the unit.

Query block: # query: Tmax of entry CC(C)C[C@@H]1NC(=O)CNC(=O)[C@H](CC(C)C)NC(=O)[C@H](Cc2c[nH]cn2)NC(=O)[C@H](CCCCN)NC(=O)[C@H](CCCCN)NC(=O)[C@@H]2CCCN2C(=O)[C@H](CCC(=O)O)NC(=O)[C@H](CCC(=O)O)NC1=O [SEQ ID NO: 77, Cyclic(HLGLEEPKK)] (cyclo(EEPKKHLGL))
Result block: 0.25

Query block: Quick one: Tmax for CCCCCCCCCCCCCCCCCC(=O)N[C@@H](Cc1c[nH]cn1)C(=O)N[C@@H](CC(C)C)C(=O)NCC(=O)N[C@@H](CC(C)C)C(=O)N[C@@H](CCC(=O)O)C(=O)N[C@@H](CCC(=O)O)C(=O)N1CCC[C@H]1C(=O)N[C@@H](CCCCN)C(=O)N[C@@H](CCCCN)C(=O)O [SEQ ID NO: 73, C18:0-HLGLEEPKK] (Stearoyl-HLGLEEPKK-OH; C-terminus assumed) ?
Result block: 4

Could you now consider this next molecule?
Query block: Tmax for CCCCCCCCCCCCCCCC(=O)N[C@@H](Cc1c[nH]cn1)C(=O)N[C@@H](CC(C)C)C(=O)NCC(=O)N[C@@H](CC(C)C)C(=O)N[C@@H](CCC(=O)O)C(=O)N[C@@H](CCC(=O)O)C(=O)N1CCC[C@H]1C(=O)N[C@@H](CCCCN)C(=O)N[C@@H](CCCCN)C(=O)O [SEQ ID NO: 72, C16:0-HLGLEEPKK] (Palmitoyl-HLGLEEPKK-OH; C-terminus assumed) ?
Result block: 1

* * *

assay: Pharmacokinetics of acylated analogs in male Sprague Dawley rats after subcutaneous injection (Example 11); type: in vivo; design: concentration or dose not given beside the values; conditions: in vivo; sc, rat, Table 24
Residues, ends and D or L forms follow the SMILES beside them. *: point of attachment. Palmitoyl = CCCCCCCCCCCCCCCC(=O)*
measure.name: AUC(0-t) (µM·h)
Write the number in µM·h without appending the unit.

Query block: # query: AUC(0-t) of entry CCCCCCCCCCCCCCCC(=O)NCCCC[C@H](NC(=O)[C@H](CCCCN)NC(=O)[C@@H]1CCCN1C(=O)[C@H](CCC(=O)O)NC(=O)[C@H](CCC(=O)O)NC(=O)[C@H](CC(C)C)NC(=O)CNC(=O)[C@H](CC(C)C)NC(=O)[C@@H](N)Cc1c[nH]cn1)C(=O)O [compound 76] (H-HLGLEEPKK(Palmitoyl)-OH; N-terminus and C-terminus assumed)
Result block: 1.09

* * *

Test: Stability of HBD1 fragments in human plasma
Type: in vitro ADME
Details: human, human K2EDTA plasma; spiked at 1 μg/mL; 37° C.; 48 hours; read-out: Remaining parent peptide in human plasma 48 hours post spike
Description: The peptides were spiked at 1 μg/mL (peptide backbone) into pre-warmed human K2EDTA plasma (at 37° C.) and incubated for up to 48 hours. Aliquots of plasma were extracted at specific time points (0, 24 and 48 hours post spike). […] The peptides were analyzed using developed LC (C18 reverse phase column)—positive ion electrospray MS/MS methods specific to each peptide. The peak area at each time point was expressed as a percentage of the value obtained for the t=0 minutes time point.
No end group written: not given here.
# reported remaining at 48 h, 1 μg/mL; entries follow
Only the number, expressed in %, is required.

Query block: Find the recorded remaining at 48 h, 1 μg/mL belonging to HLGLEEPKK [compound 10] and report it.
Result block: 87

Switching to the query record.
Query block: # get_value(readout='remaining at 48 h, 1 μg/mL', item= KHHLGLEEPKKLR [compound 1] )
Result block: 18

* * *

assay: Pharmacokinetics in male Sprague Dawley rats after intravenous and subcutaneous injection (Example 10); format: in vivo; settings: male, Sprague Dawley, plasma; sc, 1 μmol net peptide/kg, rat
Residues, ends and D or L forms follow the SMILES beside them. *: point of attachment. Stearoyl = CCCCCCCCCCCCCCCCCC(=O)*; Palmitoyl = CCCCCCCCCCCCCCCC(=O)*
Parameter: AUC(0-t). Scope: all listed entries.
Numeric answer only, unit nM·h assumed.

Query block: # AUC(0-t) lookup, item CCCCCCCCCCCCCCCCCC(=O)N[C@@H](Cc1c[nH]cn1)C(=O)N[C@@H](CC(C)C)C(=O)NCC(=O)N[C@@H](CC(C)C)C(=O)N[C@@H](CCC(=O)O)C(=O)N[C@@H](CCC(=O)O)C(=O)N1CCC[C@H]1C(=O)N[C@@H](CCCCN)C(=O)N[C@@H](CCCCN)C(=O)O [SEQ ID NO: 73, C18:0-HLGLEEPKK] (Stearoyl-HLGLEEPKK-OH; C-terminus assumed)
Result block: 4810

Query block: For the molecule CC(C)C[C@@H]1NC(=O)CNC(=O)[C@H](CC(C)C)NC(=O)[C@H](Cc2c[nH]cn2)NC(=O)[C@H](CCCCN)NC(=O)[C@H](CCCCN)NC(=O)[C@@H]2CCCN2C(=O)[C@H](CCC(=O)O)NC(=O)[C@H](CCC(=O)O)NC1=O [SEQ ID NO: 77, Cyclic(HLGLEEPKK)] (cyclo(EEPKKHLGL)) , what AUC(0-t) is on record?
Result block: 990

Now for the molecule whose AUC(0-t) we want.
Query block: So what's the measured AUC(0-t) for this one? CCCCCCCCCCCCCCCC(=O)N[C@@H](Cc1c[nH]cn1)C(=O)N[C@@H](CC(C)C)C(=O)NCC(=O)N[C@@H](CC(C)C)C(=O)N[C@@H](CCC(=O)O)C(=O)N[C@@H](CCC(=O)O)C(=O)N1CCC[C@H]1C(=O)N[C@@H](CCCCN)C(=O)N[C@@H](CCCCN)C(=O)O [SEQ ID NO: 72, C16:0-HLGLEEPKK] (Palmitoyl-HLGLEEPKK-OH; C-terminus assumed)
Result block: 1570

* * *

test: Pharmacokinetics of acylated analogs in male Sprague Dawley rats after subcutaneous injection (Example 11); type: in vivo; details: male, Sprague Dawley, plasma; sc, rat, Table 24
Residues, ends and D or L forms follow the SMILES beside them. *: point of attachment. C16 diacid = O=C(O)CCCCCCCCCCCCCCC(=O)*; Arachidoyl = CCCCCCCCCCCCCCCCCCCC(=O)*; Stearoyl = CCCCCCCCCCCCCCCCCC(=O)*; Palmitoyl = CCCCCCCCCCCCCCCC(=O)*; Myristoyl = CCCCCCCCCCCCCC(=O)*
In this section, each of the compounds is paired with its reported Tmax.
Write it as a number; the unit h goes unstated.

Query block: Quick one: Tmax for CCCCCCCCCCCCCCCCCCCC(=O)N[C@@H](Cc1c[nH]cn1)C(=O)N[C@@H](CC(C)C)C(=O)NCC(=O)N[C@@H](CC(C)C)C(=O)N[C@@H](CCC(=O)O)C(=O)N[C@@H](CCC(=O)O)C(=O)N1CCC[C@H]1C(=O)N[C@@H](CCCCN)C(=O)N[C@@H](CCCCN)C(=O)O [compound 74] (Arachidoyl-HLGLEEPKK-OH) ?
Result block: 2

Further cases:
Query block: // Tmax lookup, key: CCCCCCCCCCCCCC(=O)N[C@@H](Cc1c[nH]cn1)C(=O)N[C@@H](CC(C)C)C(=O)NCC(=O)N[C@@H](CC(C)C)C(=O)N[C@@H](CCC(=O)O)C(=O)N[C@@H](CCC(=O)O)C(=O)N1CCC[C@H]1C(=O)N[C@@H](CCCCN)C(=O)N[C@@H](CCCCN)C(=O)O [compound 71] (Myristoyl-HLGLEEPKK-OH; C-terminus assumed)
Result block: 1

Query block: // query Tmax value for entry CC(C)C[C@H](NC(=O)CNC(=O)[C@H](CC(C)C)NC(=O)[C@H](Cc1c[nH]cn1)NC(=O)CCCCCCCCCCCCCCC(=O)O)C(=O)N[C@@H](CCC(=O)O)C(=O)N[C@@H](CCC(=O)O)C(=O)N1CCC[C@H]1C(=O)N[C@@H](CCCCN)C(=O)N[C@@H](CCCCN)C(=O)O [compound 75] ({C16 diacid}-HLGLEEPKK-OH; C-terminus assumed)
Result block: 0.25

Query block: Tell me the measured Tmax of CCCCCCCCCCCCCCCC(=O)N[C@@H](CCCCN)C(=O)N[C@@H](Cc1c[nH]cn1)C(=O)N[C@@H](Cc1c[nH]cn1)C(=O)N[C@@H](CC(C)C)C(=O)NCC(=O)N[C@@H](CC(C)C)C(=O)N[C@@H](CCC(=O)O)C(=O)N[C@@H](CCC(=O)O)C(=O)N1CCC[C@H]1C(=O)N[C@@H](CCCCN)C(=O)N[C@@H](CCCCN)C(=O)N[C@@H](CC(C)C)C(=O)N[C@@H](CCCNC(=N)N)C(=O)O [compound 78] (Palmitoyl-KHHLGLEEPKKLR-OH) , please.
Result block: 6

Query block: Param item = CCCCCCCCCCCCCCCCCC(=O)N[C@@H](Cc1c[nH]cn1)C(=O)N[C@@H](CC(C)C)C(=O)NCC(=O)N[C@@H](CC(C)C)C(=O)N[C@@H](CCC(=O)O)C(=O)N[C@@H](CCC(=O)O)C(=O)N1CCC[C@H]1C(=O)N[C@@H](CCCCN)C(=O)N[C@@H](CCCCN)C(=O)O [compound 73] (Stearoyl-HLGLEEPKK-OH) ; retrieve measured Tmax.
Result block: 4

Query block: Entry under review: CCCCCCCCCCCCCCCC(=O)N[C@@H](Cc1c[nH]cn1)C(=O)N[C@@H](CC(C)C)C(=O)NCC(=O)N[C@@H](CC(C)C)C(=O)N[C@@H](CCC(=O)O)C(=O)N[C@@H](CCC(=O)O)C(=O)N1CCC[C@H]1C(=O)N[C@@H](CCCCN)C(=O)N[C@@H](CCCCN)C(=O)O [compound 72] (Palmitoyl-HLGLEEPKK-OH) . Reported Tmax?
Result block: 1
